B1: library; numbered along this chain (parent)
chain: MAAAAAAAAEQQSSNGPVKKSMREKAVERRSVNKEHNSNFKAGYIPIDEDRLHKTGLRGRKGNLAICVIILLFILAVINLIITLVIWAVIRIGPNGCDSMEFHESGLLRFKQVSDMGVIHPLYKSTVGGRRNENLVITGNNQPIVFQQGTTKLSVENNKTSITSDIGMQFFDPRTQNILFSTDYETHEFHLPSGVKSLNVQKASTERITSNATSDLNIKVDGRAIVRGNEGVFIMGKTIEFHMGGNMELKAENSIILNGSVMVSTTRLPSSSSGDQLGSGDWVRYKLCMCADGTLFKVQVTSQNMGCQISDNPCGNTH

variants of: B1; experiment: SGCB cell-surface expression functional score (HA stain, bin4 vs bin1, normalised to synonymous) (log10 ratio); higher = more cell-surface SGCB (functional)
Category | rule: reported SGCB cell-surface expression functional score (log10) within range, see low group (below -0.3), middle group (-0.3 to below 0.05), high group (0.05 or more)

Solved entries:
| variant.descriptor | class.label |
| --- | --- |
| K237P | high group |
| M116W | low group |

Request: Would you mind sorting P94A into the appropriate category?
Result: middle group

Request: Which of the defined bands does the recorded SGCB cell-surface expression functional score (log10) of N217P sit within?
Result: low group

Request: Where would I81K land among the classes by reported SGCB cell-surface expression functional score (log10)?
Result: middle group

Request: Which class is correct for the following variant? A2P
Result: high group

Request: Hey, which category is V155E in, do you know?
Result: low group

Request: Place this variant in its band: S302Y
Result: middle group

Request: Any idea which band D215K is in?
Result: middle group

Request: Which class does L57T fall in?
Result: high group

Request: Which bin should I file F296V under?
Result: low group

Request: Class? Entry: P17H
Result: high group

Request: Assign a bin to L287S
Result: low group

Request: Kindly identify the class of V261R .
Result: low group

Request: Exercise: read the entry P94C and state which class it falls under.
Result: middle group

Request: Kindly state the category for this variant: G222N
Result: high group

Request: State the band of I309H
Result: low group

Request: Class for V155W ?
Result: low group

Request: Field: class (SGCB cell-surface expression functional score (log10)) — entry: F110D
Result: low group

Request: The entry to classify is R284N ; which class holds it?
Result: low group

Request: Tag the class for Y44A
Result: middle group

Request: # bin lookup: classify E133T by its SGCB cell-surface expression functional score (log10)
Result: high group

Request: Kindly state the category for this variant: I234A
Result: middle group

Request: Band of G117L ?
Result: low group

Request: Which bin, given its SGCB cell-surface expression functional score (log10), does G16R occupy?
Result: middle group
